test: Solubility of the salt-forming type dyes (Tables 1-3); format: physicochemical; conditions: solvent: ethanol
Measured Endpoint: Solubility, Ethanol (g/100 ml)

>>> endpoint_value("Nc1cc2c(O)c(N=Nc3ccc(N=Nc4cccc(P(=O)(O)O)c4)c4ccc(S(=O)(=O)O)cc34)c(S(=O)(=O)O)cc2cc1S(=O)(=O)O [Black No. 4]")
5
>>> endpoint_value("O=P(O)(O)c1cccc(N=Nc2c(S(=O)(=O)O)cc3cc(Nc4ccc5c(O)c(N=Nc6cccc(P(=O)(O)O)c6)c(S(=O)(=O)O)cc5c4)ccc3c2O)c1")
5
>>> endpoint_value("Nc1cc2c(O)c(N=Nc3ccc(N=Nc4cccc(P(=O)(O)O)c4)c4ccc(S(=O)(=O)O)cc34)c(S(=O)(=O)O)cc2cc1S(=O)(=O)O [Black No. 5]")
10
>>> endpoint_value("Nc1ccc2cc(S(=O)(=O)O)c(N=Nc3ccc(N=Nc4cccc(P(=O)(O)O)c4)c4ccc(S(=O)(=O)O)cc34)c(O)c2c1 [Black No. 8]")
8

(P) CC(=O)Nc1cc(S(=O)(=O)O)cc2cc(S(=O)(=O)O)c(N=Nc3cccc(P(=O)(O)O)c3)c(O)c12
(Q) COc1cc(N=Nc2cccc(P(=O)(O)O)c2)c(C)cc1N=Nc1c(S(=O)(=O)O)cc2ccc(N)cc2c1O [Black No. 1]
Hey, which is lower on measured Solubility, Ethanol, P or Q ? Could you answer with the label of the item you picked?
Q
(Q: 3 g/100 ml, P: 8 g/100 ml)

###

test: Solubility of the salt-forming type dyes (Tables 1-3); format: physicochemical; conditions: Water:Solvent = 2:8
Measured Endpoint: Solubility, Water:Solvent = 2:8 (g/100 ml)

>>> endpoint_value("Nc1cc(S(=O)(=O)O)cc2cc(S(=O)(=O)O)c(N=Nc3ccc(N=Nc4cccc(P(=O)(O)O)c4)c4ccc(O)cc34)c(O)c12 [Blue No. 2]")
30
>>> endpoint_value("CC1(C)Nc2cccc3c(N=Nc4cc(S(=O)(=O)O)cc5cc(S(=O)(=O)O)c(N=Nc6cccc(P(=O)(O)O)c6)c(O)c45)ccc(c23)N1 [Black No. 6]")
10
>>> endpoint_value("COc1cc(N=Nc2cccc(P(=O)(O)O)c2)c(C)cc1N=Nc1c(S(=O)(=O)O)cc2ccc(N)cc2c1O [Black No. 2]")
10
>>> endpoint_value("COc1cc(N=Nc2cccc(P(=O)(O)O)c2)c(C)cc1N=Nc1c(S(=O)(=O)O)cc2cc(S(=O)(=O)O)cc(N)c2c1O [Blue No. 3]")
25
>>> endpoint_value("Nc1cc2c(O)c(N=Nc3ccc(N=Nc4cccc(P(=O)(O)O)c4)c4ccc(S(=O)(=O)O)cc34)c(S(=O)(=O)O)cc2cc1S(=O)(=O)O [Black No. 5]")
10

(a) Nc1c(N=Nc2cccc(P(=O)(O)O)c2)c(S(=O)(=O)O)cc2cc(S(=O)(=O)O)c(N=Nc3cccc(P(=O)(O)O)c3)c(O)c12 [Blue No. 1]
(b) Nc1ccc2cc(S(=O)(=O)O)c(N=Nc3ccc(N=Nc4cccc(P(=O)(O)O)c4)c4ccc(S(=O)(=O)O)cc34)c(O)c2c1 [Black No. 3]
// select label with min value of measured Solubility, Water:Solvent = 2:8 from [ a , b ] Mark your answer with the label of the selected entry.
b
(b: 20 g/100 ml, a: 30 g/100 ml)
